Cited source: the supplement of paper PMC11619387

Each item that follows carries a reported EC50.
tested on: Pseudomonas aeruginosa PAO1-Xen41; assay: EC50 of growth/kill rate concentration-effect curve; details: medium (conditioned by secondary species or non-conditioned control): M. avium
Quick reminder: number only, in mg/L, skip the unit.

Return EC50 for the following molecule: NC[C@H]1O[C@H](O[C@H]2[C@H](O)[C@@H](O[C@H]3O[C@H](CO)[C@@H](O)[C@H](N)[C@H]3O)[C@H](N)C[C@@H]2N)[C@H](N)C[C@@H]1O [tobramycin]
0.201

State its EC50: C[C@@H]1O[C@@H]1P(=O)(O)O [fosfomycin]
34.4

Note EC50 for the molecule shown: C[C@@H](O)[C@H]1C(=O)N2C(C(=O)O)=C(S[C@@H]3CN[C@H](C(=O)N(C)C)C3)[C@H](C)[C@H]12 [meropenem]
0.337

Give reported EC50 value for C[C@H]1[C@H](NC(=O)/C(=N\OC(C)(C)C(=O)O)c2csc(N)n2)C(=O)N1S(=O)(=O)O [aztreonam]
4.58
